B1: minF1; the commonest letter at each place (parent)
chain: GAGACCGCAACTGAAAAGTTGTTATCAGAAATGGATGGGTTGAATTTCTGCACGTAGAAGCAAAAGGC

# Variants of: B1
# Assay method text: fraction ligated after 30 min (ligated reads / total reads); higher = more ligase activity
# Measurement parameters: with F1*subA RNA substrate (template-directed ligation), 42 °C
Binary classification by fraction ligated, with 0.004 as an inclusive lower bound for 1; all other cases are 0.

Sequence string: GAGACCGCAACTGAAAAGTTGTTTTCAGAAATCGATGGGTTGAATTTCTGCACGTAGAAGCAAAAGGC
Label class: 1

Sequence string: GAGACCGCAACTGAAAAGTTGTTATCAGAAATGGATAGGTTTAATTTCTGCACGTAGAAGCAAAAGGC
Label class: 0

Sequence string: GAGACCGCAACTGAAAAGTTGTTATCATAAATGGATCGGTTGAATTTCTGCACGTAGAAGCAAAAGGC
Label class: 1

Sequence string: GAGACCGCAACTGAAAAGTTGTTATCAAAAATGGACGGGTTGAATTTCTGCACGTAGAAGCAAAAGGC
Label class: 1

Req: Please tell me: is the variant `GAGACCGCAACTGAAAAGTTGTTATCAGATATGGGTGGGTTGAATTTCTGCACGTAGAAGCAAAAGGC` at or over 0.004 in terms of fraction ligated?
Resp: 1

Req: Please tell me: is the variant `GAGACCGCAACTGAAAAGTTGTTATCAGAAATGGATGGGTTCACTTTCTGCACGTAGAAGCAAAAGGC` at or over 0.004 in terms of fraction ligated?
Resp: 0

The reported measurements were obtained from the supplement of paper PMC6755084.
